# subject-of-test: histamine H2-receptors (Rattus norvegicus, UniProt P25102)
# Construct: histamine H2 -receptors was tested in Sprague-Dawley male rats; from tissue; host or cells: stomach of the living anesthetized Sprague-Dawley rat (in vivo perfused stomach)
# Sequence (P25102 whole entry, the tested form may be a part): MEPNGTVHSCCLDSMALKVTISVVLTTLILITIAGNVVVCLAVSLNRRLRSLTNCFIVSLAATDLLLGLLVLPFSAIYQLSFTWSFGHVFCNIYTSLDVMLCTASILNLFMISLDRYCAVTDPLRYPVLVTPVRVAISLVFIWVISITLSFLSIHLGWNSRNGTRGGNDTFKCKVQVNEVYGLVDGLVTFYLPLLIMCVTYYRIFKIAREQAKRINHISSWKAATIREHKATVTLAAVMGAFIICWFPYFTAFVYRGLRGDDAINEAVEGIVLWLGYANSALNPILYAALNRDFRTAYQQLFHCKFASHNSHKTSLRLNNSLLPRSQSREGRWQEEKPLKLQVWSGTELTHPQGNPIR
# assay-text: blocking activity of histamine H2-receptors: antagonism of histamine-induced gastric acid secretion (perfused stomach, pH recording) in anesthetized rats
# Type: in vivo
# test-settings: iv, rapid i.v. injection (right femoral vein), histamine hydrochloride infusion 0.0552 mg/min/kg, ethyl carbamate anesthesia, male Sprague-Dawley rats
Where a name gives a salt, the structure may show the parent alone.
Consider the following molecules; for each one, report its ED50.
Just the number in µmol/kg, nothing appended.

-- ask Entry NC(N)=Nc1nc(CSCCNC=NS(=O)(=O)c2ccc([N+](=O)[O-])cc2)cs1 [Ex. 4, hydrogen maleate] : reported ED50 = ?
-- reply 0.61

-- ask Quick one: ED50 of NC(N)=Nc1nc(CSCCNC=NS(=O)(=O)c2ccc(Cl)cc2)cs1 [Ex. 5, hydrogen maleate] ?
-- reply 0.75

-- ask Which ED50 is reported for this molecule? CS(=O)(=O)N=CNCCSCc1csc(N=C(N)N)n1 [Ex. 3, hydrogen maleate]
-- reply 1.12

-- ask Value lookup for ED50; key = NC(N)=Nc1nc(CSCCNC=NS(=O)(=O)c2ccccc2)cs1 [Ex. 2, hydrogen maleate]
-- reply 1.77

-- ask State the recorded ED50 for this entry: Cc1ccc(S(=O)(=O)N=CNCCSCc2csc(N=C(N)N)n2)cc1 [Ex. 1, hydrogen maleate]
-- reply 0.7
